Experiment: Antiplatelet aggregatory activity in pig […] assessed as inhibition of platelet-activating factor-induced platelet aggregation
Format: functional
Conditions: Sus scrofa
Square brackets hold non-standard residues; d marks the D form. Peptide text beside a SMILES is read from it. Tic = O=C(O)[C@@H]1Cc2ccccc2CN1
Lab note: compare IC50 with 900 nM, writing yes if less and no if equal or more.

Worked examples follow.
• N=C(N)NCCC[C@H](NC(=O)[C@@H]1Cc2ccccc2CN1)C(=O)O (H-[Tic]-Arg-OH) = no
• O=C(O)[C@@H]1Cc2ccccc2CN1 = no

Does O=C(O)C[C@H](NC(=O)[C@@H]1Cc2ccccc2CN1)C(=O)O (H-[Tic]-Asp-OH) have IC50 strictly under 900 nM?
yes

Next entry: O=C(O)[C@H](CO)NC(=O)[C@@H]1Cc2ccccc2CN1 (H-[Tic]-Ser-OH)
no

CC[C@H](C)[C@H](NC(=O)[C@@H]1Cc2ccccc2CN1)C(=O)O (H-[Tic]-Ile-OH) , same question.
no

Then N[C@@H](CCC(=O)O)C(=O)N1Cc2ccccc2C[C@H]1C(=O)O (H-Glu-[Tic]-OH) ?
yes

Now this one: CC(C)[C@H](NC(=O)[C@@H]1Cc2ccccc2CN1)C(=O)O (H-[Tic]-Val-OH)
no

Now the compound O=C(O)[C@@H]1CCCN1C(=O)[C@@H]1Cc2ccccc2CN1 (H-[Tic]-Pro-OH)
no

Another: O=C(O)[C@H](Cc1ccc(O)cc1)NC(=O)[C@@H]1Cc2ccccc2CN1 (H-[Tic]-Tyr-OH)
no

# iterate: N[C@@H](Cc1c[nH]cn1)C(=O)N1Cc2ccccc2C[C@H]1C(=O)O (H-His-[Tic]-OH)
yes

Next compound up: C[C@@H](O)[C@H](NC(=O)[C@@H]1Cc2ccccc2CN1)C(=O)O (H-[Tic]-Thr-OH)
yes

Another compound to look at: CSCC[C@H](NC(=O)[C@@H]1Cc2ccccc2CN1)C(=O)O (H-[Tic]-Met-OH)
yes

Now give it for O=C(O)[C@H](Cc1c[nH]c2ccccc12)NC(=O)[C@@H]1Cc2ccccc2CN1 (H-[Tic]-Trp-OH) too.
yes

Now the same for C[C@H](N)C(=O)N1Cc2ccccc2C[C@H]1C(=O)O (H-Ala-[Tic]-OH)
no

Also O=C(O)[C@H](Cc1c[nH]cn1)NC(=O)[C@@H]1Cc2ccccc2CN1 (H-[Tic]-His-OH) ?
yes

What do you get for N[C@@H](Cc1ccc(O)cc1)C(=O)N1Cc2ccccc2C[C@H]1C(=O)O (H-Tyr-[Tic]-OH) ?
yes

---

Assay: Antiplatelet aggregatory activity in pig […] assessed as inhibition of platelet-activating factor-induced platelet aggregation
Assay type: functional
Details: Sus scrofa
Square brackets hold non-standard residues; d marks the D form. Peptide text beside a SMILES is read from it. Tic = O=C(O)[C@@H]1Cc2ccccc2CN1
assay.readout: pIC50
When answering, recall that pIC50 equals minus log10 of the concentration in mol/L, and write that number alone.

Consider the reported pIC50 for these molecules:
* N[C@@H](CO)C(=O)N1Cc2ccccc2C[C@H]1C(=O)O (H-Ser-[Tic]-OH) | 6.57
* CC(C)[C@H](N)C(=O)N1Cc2ccccc2C[C@H]1C(=O)O (H-Val-[Tic]-OH) | 6.20

The record that follows has no pIC50 shown yet.
I have this molecule here, CC(C)C[C@H](NC(=O)[C@@H]1Cc2ccccc2CN1)C(=O)O (H-[Tic]-Leu-OH) , and I need its recorded pIC50.
5.79

Taken from ChEMBL document CHEMBL1156036.
